test system: 786-O; test: Euclidean distance of Cell Painting phenotypic profile (signed KS, 77 features) to DMSO centroid (dimensionless distance); 5 or 10 uM (library dependent); higher = stronger phenotypic change vs DMSO (phenoactivity); settings: 48 h
Consider the following compounds; for each one, report its Euclidean distance.
One number for each entry.

Please review the entries below; each comes with its answer.
* Nc1nc(N)nc(-c2cc(Cl)ccc2Cl)n1 [Irsogladine] | 1.09
* O=C(OCc1ccccc1)c1ccccc1 [Benzyl benzoate] | 0.857
* Cc1c(C)c2c(c(C)c1O)CCC(C)(COc1ccc(CC3SC(=O)NC3=O)cc1)O2 (stereo not given) [Troglitazone (CS-045)] | 1.4

I'm hoping you can list Euclidean distance for every compound here, please.
1. CC[N+](CC)(CC)CCOc1cccc(OCC[N+](CC)(CC)CC)c1OCC[N+](CC)(CC)CC [Gallamine Triethiodide]
2. O=C(Nc1ccc(Oc2ccc(Cl)cc2)c(Cl)c1)c1cc(I)cc(I)c1O [Rafoxanide]
3. O=C(O)CSc1nnc(Br)n1-c1ccc(C2CC2)c2ccccc12 [Lesinurad]
4. O=C(O)CCCCCCCC(=O)O [Azelaic acid]
5. O=C(O)c1ccccc1OP(=O)(O)O [Fosfosal]
6. O=C(O)CC(O)(CC(=O)O)C(=O)O [Citric acid]

0.82
1.36
0.529
0.8
0.982
0.88

Returns the measured Euclidean distance for the input compound. Input: CCOCCn1c(N2CCCN(C)CC2)nc2ccccc21 [Emedastine] 0.676

====

system: FB; experiment: Euclidean distance of Cell Painting phenotypic profile (signed KS, 77 features) to DMSO centroid (dimensionless distance); 5 or 10 uM (library dependent); higher = stronger phenotypic change vs DMSO (phenoactivity); conditions: 48 h
Where a name gives a salt, the structure may show the parent alone.
Class field: derived from Euclidean distance; ranges b0 (below 1), b1 (1 to below 2), b2 (2 or more)

Worked cases, answers included:
• O=c1c(O)c(-c2cc(O)c(O)c(O)c2)oc2cc(O)cc(O)c12 [Myricetin] = b1
• Cc1onc(-c2ccccc2)c1-c1ccc(S(N)(=O)=O)cc1 [Valdecoxib] = b1
• O=C(CCCCCCC(=O)Nc1ccccc1)NO [Vorinostat (SAHA. MK0683)] = b2
• Nc1ccc(S(=O)(=O)Nc2nccs2)cc1 [Sulfathiazole] = b0
• COc1ccc(C2=N[C@@H](c3ccc(Cl)cc3)[C@@H](c3ccc(Cl)cc3)N2C(=O)N2CCNC(=O)C2)c(OC(C)C)c1 [Nutlin-3] = b2
• CCn1cc(C(=O)O)c(=O)c2cc(F)c(N3CCN(C)CC3)cc21 [Pefloxacin Mesylate Dihydrate] = b0
• C#CCN(C)CCCOc1ccc(Cl)cc1Cl [Clorgyline HCl] = b1

Now for a further compound.
Place this compound in its band: O=C(O)C1(c2ccc(-c3ccc(Cl)c(Cl)c3)c(F)c2)CC1 b1

====

system: HEPG2; experiment: Euclidean distance of Cell Painting phenotypic profile (signed KS, 77 features) to DMSO centroid (dimensionless distance); 5 or 10 uM (library dependent); higher = stronger phenotypic change vs DMSO (phenoactivity); conditions: 48 h
Structures can show the parent of a compound that is named as a salt.
For each record, write down the corresponding Euclidean distance.
One number for each entry.

Please review the following examples before continuing.
* NC[C@@H]1O[C@H](O[C@H]2[C@@H](O)[C@H](O[C@@H]3[C@@H](O)[C@H](N)C[C@H](N)[C@H]3O[C@H]3O[C@H](CO)[C@@H](O)[C@H](O)[C@H]3N)O[C@@H]2CO)[C@H](N)[C@@H](O)[C@@H]1O [Paromomycin Sulfate] | 0.817
* CCCCCc1ccc(C)cc1O [Amylmetacresol] | 0.412
* Nc1ccc(C(=O)Nc2cccc(-c3nc(N4CCOCC4)c4oc5ncccc5c4n3)c2)cn1 | 3.45
* CCOc1ccc(NC(C)=O)cc1 [Phenacetin] | 0.469
* Cc1cc(C(C)(C)C)c(O)c(C)c1CC1=NCCN1 [Oxymetazoline HCl] | 1.88
* CCn1cc(-c2ccnc3[nH]c(-c4cccc(CN(C)C)c4)cc23)c(-c2ccc(NC(=O)N(C)C)cc2)n1 | 2.7
* C[C@]12CCC(=O)C=C1C=C[C@@H]1[C@@H]2CC[C@@]2(C)[C@H]1CC[C@@]21CCC(=O)O1 [Canrenone] | 1.24

As a next step, examine the compound that follows.
Find the recorded Euclidean distance belonging to CC(C)(C)C(=O)Oc1ccc(S(=O)(=O)Nc2ccccc2C(=O)NCC(=O)O)cc1 [Sivelestat (ONO-5046)] and report it. 0.614

====

system: HEPG2; test: Euclidean distance of Cell Painting phenotypic profile (signed KS, 77 features) to DMSO centroid (dimensionless distance); 5 or 10 uM (library dependent); higher = stronger phenotypic change vs DMSO (phenoactivity); details: 48 h
Where a name gives a salt, the structure may show the parent alone.
quantity-measured: Euclidean distance

Solved entries:
* CCN(CC)C(=O)C1(c2ccccc2)CC1CN (stereo not drawn) [Milnacipran HCl] | 0.468
* CCCCC(O)c1ccccc1 (stereo not drawn) | 0.912
* OCc1ccccc1O[C@@H]1O[C@H](CO)[C@@H](O)[C@H](O)[C@H]1O | 0.419
* COc1cc(/C=C/C(=O)CC(=O)/C=C/c2ccc(O)c(OC)c2)ccc1O | 2.02

Quick batch: Euclidean distance for everything below.
1. CN(C)CCC=C1c2ccccc2C(C)(C)c2ccccc21 [Melitracen hydrochloride]
2. CCC(c1ccccc1)c1c(O)c2ccccc2oc1=O (stereo not drawn)
3. CC(C)C(=O)OCC(=O)[C@@]12O[C@H](C3CCCCC3)O[C@@H]1C[C@H]1[C@@H]3CCC4=CC(=O)C=C[C@]4(C)[C@H]3[C@@H](O)C[C@@]12C [Ciclesonide]
4. COc1ccc(S(=O)(=O)N(C(C)=O)c2ccccc2/C=C/c2cc[n+]([O-])cc2)cc1
5. CC1(C)CC(Oc2ccc(-c3ccc(-c4cn[nH]c4)cc3O)nn2)CC(C)(C)N1

[1.5, 0.975, 2.25, 3.08, 3.03]

====

Please respond with reported Euclidean distance for every item in the list.
tested on: FB; assay: Euclidean distance of Cell Painting phenotypic profile (signed KS, 77 features) to DMSO centroid (dimensionless distance); 5 or 10 uM (library dependent); higher = stronger phenotypic change vs DMSO (phenoactivity); conditions: 48 h
One number for each entry.

Solved entries:
• O=C(O[C@@H]1Cc2c(O)cc(O)cc2O[C@@H]1c1cc(O)c(O)c(O)c1)c1cc(O)c(O)c(O)c1 [(-)-Epigallocatechin Gallate] = 1.39
• CC(C)(C)NC(=O)[C@H]1CC[C@H]2[C@@H]3CC[C@H]4NC(=O)C=C[C@]4(C)[C@H]3CC[C@]12C [Finasteride] = 0.871
• O=C(O)COCCN1CCN(C(c2ccccc2)c2ccc(Cl)cc2)CC1 (centres undefined) [Cetirizine DiHCl] = 1.32

Turning now to a further record.
# value lookup — system FB, readout Euclidean distance, item Nc1nc(Nc2ccc(S(N)(=O)=O)cc2)nn1C(=O)c1c(F)cccc1F 0.817

====

For each record, write down the corresponding Euclidean distance.
test system: OVCAR4; experiment: Euclidean distance of Cell Painting phenotypic profile (signed KS, 77 features) to DMSO centroid (dimensionless distance); 5 or 10 uM (library dependent); higher = stronger phenotypic change vs DMSO (phenoactivity); conditions: 48 h
Structures can show the parent of a compound that is named as a salt.
Give bare numbers.

• CN1CCN(Cc2ccc(Nc3ncc(Cl)c(Nc4ccccc4S(=O)(=O)N(C)C)n3)cc2)CC1 = 3.88
• CCC[C@@H]1C[C@@H](C(=O)N[C@@H]([C@H]2O[C@H](SC)[C@H](O)[C@@H](O)[C@H]2O)[C@H](C)Cl)N(C)C1 [Clindamycin HCl] = 0.755
• OCc1cc([C@@H](O)CNCCCCCCOCCOCc2c(Cl)cccc2Cl)ccc1O [Vilanterol Trifenate] = 1.76

Would you mind giving Euclidean distance for every molecule in the list below?
1. CCn1cc(C(=O)O)c(=O)c2ccc(C)nc21 [Nalidixic acid]
2. C=CCc1ccc(O)c(-c2ccc(O)c(CC=C)c2)c1 [Honokiol]
3. C[C@H]1COc2c(N3CCN(C)CC3)c(F)cc3c(=O)c(C(=O)O)cn1c23 [Levofloxacin hydrate]
4. c1ccc2c(CC3=NCCN3)cccc2c1 [Naphazoline HCl]
5. CC/C=C\C/C=C\C/C=C\C/C=C\C/C=C\C/C=C\CCC(=O)O [Docosahexaenoic Acid]

1. 1.5
2. 1.18
3. 1.57
4. 0.531
5. 1.1

====

tested on: HEPG2; assay: Euclidean distance of Cell Painting phenotypic profile (signed KS, 77 features) to DMSO centroid (dimensionless distance); 5 or 10 uM (library dependent); higher = stronger phenotypic change vs DMSO (phenoactivity); conditions: 48 h
Rule: criterion met for Euclidean distance not less than 1, criterion not met for anything less.

- Nc1cc(F)ccc1NC(=O)/C=C/c1cnn(C/C=C/c2ccccc2)c1: criterion met
- Oc1ccc(/C=C/c2cc(O)cc(O)c2)cc1: criterion not met
- O=C1c2cccc(O)c2C(=O)c2c(O)cc(CO)cc21: criterion met
- O=C(O)C(O)C(O)C(=O)O (stereo not drawn): criterion not met
- COc1ccc(-c2ccc3cc(C(=O)O)ccc3c2)cc1C12CC3CC(CC(C3)C1)C2: criterion met
- CN1CCN(C(c2ccccc2)c2ccccc2)CC1 [Cyclizine 2HCl]: criterion not met

Tell me whether Euclidean distance is at least 1 here: C[C@H]1[C@H](OC(=O)CCC(=O)O)O[C@@H]2O[C@@]3(C)CC[C@H]4[C@H](C)CC[C@@H]1[C@@]24OO3 [Artesunate] criterion met

Determine whether this compound has Euclidean distance no lower than 1: C[N+]1(C)CCC(=C(c2ccccc2)c2ccccc2)CC1 [Diphemanil Methylsulfate] criterion not met

In plain terms: is recorded Euclidean distance at least 1 for C=C1CC/C=C(/C)CC[C@@H]2[C@@H]1CC2(C)C ? criterion not met

Dear colleague, could you confirm whether C[C@]12C=CC(=O)C=C1CC[C@H]1[C@@H]3C[C@@H](O)[C@](O)(C(=O)CO)[C@@]3(C)C[C@H](O)[C@@]12F has Euclidean distance at or above 1? criterion met
